Data provenance is ChEMBL document CHEMBL1142768.

assay: Inhibitory constant against Adenosine A2A receptor using [3H]SCH-58261 as radio ligand; design: species or system Homo sapiens
As shown below, each of these molecules has a reported Ki value.
API: value field is a number in nM; no unit string.

{"MOLECULE": "COCCOc1ccc(N2CCN(c3cccc(-c4cc5nc(-c6ccco6)nn5c(N)n4)c3)CC2)cc1", "QUANTITY_UNIT": "nM", "Ki": 1}

Entry Nc1nc(-c2cccc(N3CCC4(CC3)OCCO4)c2)cc2nc(-c3ccco3)nn12 : reported Ki = ? 0.4

Entry COCCOc1cccc(N2CCN(c3cccc(-c4cc5nc(-c6ccco6)nn5c(N)n4)c3)CC2)c1 : reported Ki = ? 2.3

Entry Nc1nc(-c2cccc(N3CCN(CCN4CCOCC4)CC3)c2)cc2nc(-c3ccco3)nn12 : reported Ki = ? 1.3

Entry Nc1nc(-c2cccc(N3CCN(C(=O)CN4CCOCC4)CC3)c2)cc2nc(-c3ccco3)nn12 : reported Ki = ? 0.5

Entry Nc1nc(-c2cccc(N3CCNCC3)c2)cc2nc(-c3ccco3)nn12 : reported Ki = ? 5.7

Entry CC1CN(CC(=O)N2CCN(c3cccc(-c4cc5nc(-c6ccco6)nn5c(N)n4)c3)CC2)CCO1 (centres undefined) : reported Ki = ? 0.8

Entry CC(C)OC(=O)N1CCN(c2cccc(-c3cc4nc(-c5ccco5)nn4c(N)n3)c2)CC1 : reported Ki = ? 1

Entry CCCCOC(=O)N1CCN(c2cccc(-c3cc4nc(-c5ccco5)nn4c(N)n3)c2)CC1 : reported Ki = ? 0.5

###

molecular target: hERG (KCNH2) (Homo sapiens, UniProt Q12809); experiment: Percent inhibition of hERG by rubidium efflux FLIPR assay at concentration of 5 ug/mL; format: toxicity
Sequence (Q12809 whole entry): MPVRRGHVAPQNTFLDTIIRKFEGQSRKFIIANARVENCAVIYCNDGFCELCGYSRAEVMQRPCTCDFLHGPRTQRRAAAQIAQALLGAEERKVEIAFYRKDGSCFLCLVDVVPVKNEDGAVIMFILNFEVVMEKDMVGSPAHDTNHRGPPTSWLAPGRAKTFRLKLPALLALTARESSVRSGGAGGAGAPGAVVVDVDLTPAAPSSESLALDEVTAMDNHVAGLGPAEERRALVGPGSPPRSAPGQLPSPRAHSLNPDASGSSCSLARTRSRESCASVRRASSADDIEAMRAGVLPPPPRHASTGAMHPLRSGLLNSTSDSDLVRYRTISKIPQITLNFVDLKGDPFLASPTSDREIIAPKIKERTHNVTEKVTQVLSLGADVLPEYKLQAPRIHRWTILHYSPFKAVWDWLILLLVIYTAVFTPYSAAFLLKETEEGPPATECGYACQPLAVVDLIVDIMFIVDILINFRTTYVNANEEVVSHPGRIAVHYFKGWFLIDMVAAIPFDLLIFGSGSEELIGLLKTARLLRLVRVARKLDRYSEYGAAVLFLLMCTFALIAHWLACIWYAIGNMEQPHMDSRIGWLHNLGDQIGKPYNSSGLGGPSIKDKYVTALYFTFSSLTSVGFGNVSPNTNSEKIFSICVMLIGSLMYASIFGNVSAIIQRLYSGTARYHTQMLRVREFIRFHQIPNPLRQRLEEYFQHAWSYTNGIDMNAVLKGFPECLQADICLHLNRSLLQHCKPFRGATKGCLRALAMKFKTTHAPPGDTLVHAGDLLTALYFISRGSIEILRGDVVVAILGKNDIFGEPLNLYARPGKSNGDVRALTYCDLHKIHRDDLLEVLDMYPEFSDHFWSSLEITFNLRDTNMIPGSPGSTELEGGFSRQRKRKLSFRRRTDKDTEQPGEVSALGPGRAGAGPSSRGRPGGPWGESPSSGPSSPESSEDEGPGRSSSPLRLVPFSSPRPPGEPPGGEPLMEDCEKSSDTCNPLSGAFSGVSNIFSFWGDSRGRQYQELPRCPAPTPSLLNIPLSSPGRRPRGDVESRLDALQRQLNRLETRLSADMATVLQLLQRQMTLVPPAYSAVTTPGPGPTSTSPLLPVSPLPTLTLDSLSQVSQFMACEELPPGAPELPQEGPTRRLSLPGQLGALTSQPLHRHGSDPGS
VALUE_TYPE: inhibition at 5 ug/mL

Here's what some known entries look like.
{"COMPOUND": "CC(C)OC(=O)N1CCN(c2cccc(-c3cc4nc(-c5ccco5)nn4c(N)n3)c2)CC1", "RESULT": "8%"}
{"COMPOUND": "CC(C)(C)CNC1CCN(c2cccc(-c3cc4nc(-c5ccco5)nn4c(N)n3)c2)CC1", "RESULT": "9%"}
{"COMPOUND": "CC(C)S(=O)(=O)N1CCN(c2cccc(-c3cc4nc(-c5ccco5)nn4c(N)n3)c2)CC1", "RESULT": "10%"}
{"COMPOUND": "Nc1nc(-c2cccc(N3CCC(N4CCOCC4)CC3)c2)cc2nc(-c3ccco3)nn12", "RESULT": "1%"}
{"COMPOUND": "Nc1nc(-c2cccc(N3CCN(C(=O)CN4CCOCC4)CC3)c2)cc2nc(-c3ccco3)nn12", "RESULT": "5%"}
{"COMPOUND": "COCCOc1ccc(N2CCN(c3cccc(-c4cc5nc(-c6ccco6)nn5c(N)n4)c3)CC2)cc1", "RESULT": "-4% (not active)"}
{"COMPOUND": "Nc1nc(-c2cccc(CO)c2)cc2nc(-c3ccco3)nn12", "RESULT": "15%"}
{"COMPOUND": "Nc1nc(-c2cccc(N3CCN(CCN4CCOCC4)CC3)c2)cc2nc(-c3ccco3)nn12", "RESULT": "13%"}

Entry COCCOc1ccc(N2CCN(Cc3cccc(-c4cc5nc(-c6ccco6)nn5c(N)n4)c3)CC2)cc1 : reported inhibition at 5 ug/mL = ? 81%

Entry CC1CN(CC(=O)N2CCN(c3cccc(-c4cc5nc(-c6ccco6)nn5c(N)n4)c3)CC2)CCO1 (centres undefined) : reported inhibition at 5 ug/mL = ? -3% (not active)

Entry CCCCOC(=O)N1CCN(c2cccc(-c3cc4nc(-c5ccco5)nn4c(N)n3)c2)CC1 : reported inhibition at 5 ug/mL = ? -3% (not active)

Entry Nc1nc(-c2cccc(N3CCC4(CC3)OCCO4)c2)cc2nc(-c3ccco3)nn12 : reported inhibition at 5 ug/mL = ? 8%

Entry COCCOc1cccc(N2CCN(Cc3cccc(-c4cc5nc(-c6ccco6)nn5c(N)n4)c3)CC2)c1 : reported inhibition at 5 ug/mL = ? 68%

Entry COCCOc1cccc(N2CCN(c3cccc(-c4cc5nc(-c6ccco6)nn5c(N)n4)c3)CC2)c1 : reported inhibition at 5 ug/mL = ? 3%
